# TARGET DESC: his-labeled human IL-13 (immunogen A) (human) (UniProt P35225)
# PROTOCOL: FACS blocking, biotin-IL-13 on IL-13Ra1/IL-4Ra HEK293 cells; antibody at 0.27 nM
Listed next: entries and their corresponding mean fluorescence intensity.
Would you mind answering with just the numeric figure?

Past entries and their recorded results:
binder="70F10A10 (lead antibody, mouse hybridoma) (antibody, V domains shown) VH: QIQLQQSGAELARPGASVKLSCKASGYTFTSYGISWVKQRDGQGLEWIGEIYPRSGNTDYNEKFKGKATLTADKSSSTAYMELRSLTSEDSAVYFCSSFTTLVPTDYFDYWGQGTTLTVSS VL: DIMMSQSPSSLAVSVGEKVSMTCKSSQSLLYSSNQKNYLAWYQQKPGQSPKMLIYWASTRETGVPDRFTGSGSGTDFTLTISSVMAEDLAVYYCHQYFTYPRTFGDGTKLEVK" reported_property="mean fluorescence intensity" obs_value=51.9
binder="28A2E11 (lead antibody, mouse hybridoma) (antibody, V domains shown, Mouse monoclonal antibody purified from hybridoma supernatant on Protein G) VH: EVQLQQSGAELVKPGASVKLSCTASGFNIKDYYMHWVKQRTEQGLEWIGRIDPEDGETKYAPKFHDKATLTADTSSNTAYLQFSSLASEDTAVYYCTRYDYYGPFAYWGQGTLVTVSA VL: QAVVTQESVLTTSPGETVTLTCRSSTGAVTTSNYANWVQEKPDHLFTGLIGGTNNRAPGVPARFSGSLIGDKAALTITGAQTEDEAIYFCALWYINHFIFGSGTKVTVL" reported_property="mean fluorescence intensity" obs_value=64.2
binder="c28A2E11 (mouse-human chimeric IL-13 antibody) (antibody, V domains shown) VH: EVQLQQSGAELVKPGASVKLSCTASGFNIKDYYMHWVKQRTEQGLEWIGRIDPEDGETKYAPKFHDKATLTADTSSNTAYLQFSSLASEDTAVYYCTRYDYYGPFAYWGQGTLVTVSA VL: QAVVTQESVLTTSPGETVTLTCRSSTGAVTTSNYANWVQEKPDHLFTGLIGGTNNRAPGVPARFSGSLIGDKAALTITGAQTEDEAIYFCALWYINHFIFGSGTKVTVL" reported_property="mean fluorescence intensity" obs_value=93

Query binder follows.
Prompt: For the binder c35E2C3 (mouse-human chimeric IL-13 antibody) (antibody, V domains shown) VH: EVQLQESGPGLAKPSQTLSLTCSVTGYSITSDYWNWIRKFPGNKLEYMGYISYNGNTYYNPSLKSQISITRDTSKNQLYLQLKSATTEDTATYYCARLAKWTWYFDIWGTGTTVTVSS VL: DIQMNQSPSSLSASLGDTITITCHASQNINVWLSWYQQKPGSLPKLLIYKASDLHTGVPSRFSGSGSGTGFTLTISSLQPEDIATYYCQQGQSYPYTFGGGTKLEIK , give its reported mean fluorescence intensity.
Completion: 81.5
